Assay: AUC (0 to infinity) in Macaca mulatta (Rhesus monkey) at 7.5 mg/kg, administered intramuscularly
Type: ADME, organism-based, Plasma
Design: time infinity, dose 7.5 mg/kg, route intramuscular
Details: plasma, im
assay.metric: AUC(0-inf) (ng·h/mL)
Write the value in ng·h/mL as a bare number.

Challenge: Please list AUC(0-inf) recorded for the compound CCO[C@H]1O[C@@H]2O[C@@]3(C)CC[C@H]4[C@H](C)CC[C@@H]([C@H]1C)[C@@]24OO3
Response given: 746

* * *

Assay: AUC (0 to infinity) in Homo sapiens (human) at 150 mg
Type: ADME, organism-based
Parameters: dose 150 mg, time infinity
Details: plasma
assay.metric: AUC(0-inf) (ng·h/mL)
Report as a plain number; the unit ng·h/mL is understood.

>>> numeric_value("CCO[C@H]1O[C@@H]2O[C@@]3(C)CC[C@H]4[C@H](C)CC[C@@H]([C@H]1C)[C@@]24OO3")
2330

Pending molecule:
Challenge: Please report AUC(0-inf) for the following molecule: CCO[C@@H]1O[C@@H]2O[C@]3(C)CC[C@H]4[C@H](C)CC[C@@H]([C@H]1C)[C@@]24OO3
Response given: 1300

* * *

Some compounds, each annotated with its measured Tmax.
Experiment: Tmax in Rattus norvegicus Sprague-Dawley (rat) at 30 mg/kg, po
Assay type: ADME, organism-based
Set-up: dose 30 mg/kg, route oral
Conditions: in vivo
Report the figure in min without appending any unit label.

>>> numeric_value("CCO[C@H]1O[C@@H]2O[C@@]3(C)CC[C@H]4[C@H](C)CC[C@@H]([C@H]1C)[C@@]24OO3")
5

Would you kindly look at the next entry?
Challenge: Supply recorded Tmax for CCO[C@@H]1O[C@@H]2O[C@]3(C)CC[C@H]4[C@H](C)CC[C@@H]([C@H]1C)[C@@]24OO3 here.
Response given: 5

* * *

Experiment: Tmax in Rattus norvegicus Sprague-Dawley (rat) at 9 mg/kg, administered intramuscularly
Type: ADME, organism-based
Parameters: dose 9 mg/kg, route intramuscular
Details: in vivo, im
This section presents compounds with their documented Tmax values.
I only need the number, in min, no unit after it.

>>> numeric_value("CCO[C@H]1O[C@@H]2O[C@@]3(C)CC[C@H]4[C@H](C)CC[C@@H]([C@H]1C)[C@@]24OO3")
20

Continue with the compound presented below.
Challenge: Find the measured Tmax of CCO[C@@H]1O[C@@H]2O[C@]3(C)CC[C@H]4[C@H](C)CC[C@@H]([C@H]1C)[C@@]24OO3 and report it.
Response given: 30

* * *

Assay: Mean residence time in Rattus norvegicus Sprague-Dawley (rat) at 2 mg/kg, iv
Assay type: ADME, organism-based
Parameters: dose 2 mg/kg, route intravenous
Settings: in vivo
# MRT annotations
Answer format: numeric, min implied, no suffix.

>>> numeric_value("CCO[C@H]1O[C@@H]2O[C@@]3(C)CC[C@H]4[C@H](C)CC[C@@H]([C@H]1C)[C@@]24OO3")
54

// moving on: another record for MRT
Challenge: Please list MRT recorded for the compound CCO[C@@H]1O[C@@H]2O[C@]3(C)CC[C@H]4[C@H](C)CC[C@@H]([C@H]1C)[C@@]24OO3
Response given: 36

* * *

Test: Elimination half life in Rattus norvegicus Sprague-Dawley (rat) at 17.5 mg/kg, administered intramuscularly
Format: ADME, organism-based
Parameters: dose 17.5 mg/kg, route intramuscular
Conditions: in vivo, im, read-out: beta t1/2 (converted)
assay.metric: half-life (min)
Numbers only; they are read as min.

>>> numeric_value("CCO[C@H]1O[C@@H]2O[C@@]3(C)CC[C@H]4[C@H](C)CC[C@@H]([C@H]1C)[C@@]24OO3")
1650

Please examine the following record next.
Challenge: Retrieve half-life measured for CCO[C@@H]1O[C@@H]2O[C@]3(C)CC[C@H]4[C@H](C)CC[C@@H]([C@H]1C)[C@@]24OO3 and print it.
Response given: 1300
